subject of test: formaldehyde dehydrogenase (FDH) (Pseudomonas putida, UniProt P46154)
Construct: purchased Sigma-Aldrich
Sequence (P46154 whole entry): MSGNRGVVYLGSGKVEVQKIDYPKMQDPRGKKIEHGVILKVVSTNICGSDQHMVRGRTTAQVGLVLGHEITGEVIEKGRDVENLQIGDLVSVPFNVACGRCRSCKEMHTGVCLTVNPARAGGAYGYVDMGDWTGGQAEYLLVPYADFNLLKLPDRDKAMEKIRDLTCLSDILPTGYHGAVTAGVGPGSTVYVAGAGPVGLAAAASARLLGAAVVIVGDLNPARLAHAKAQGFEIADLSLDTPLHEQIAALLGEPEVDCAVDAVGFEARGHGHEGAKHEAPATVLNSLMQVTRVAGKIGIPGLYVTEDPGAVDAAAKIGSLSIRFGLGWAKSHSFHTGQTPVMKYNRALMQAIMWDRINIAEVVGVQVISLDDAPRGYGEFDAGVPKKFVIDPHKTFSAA
experimental details: FDH coupling enzyme counterscreen
Type: biochemical
run conditions: Table S1; FDH counterscreen
parameter measured: qHTS Data: jmjd2e fdh CurveClass

Field: example entries. Status: answers known.
COc1cc(/C=N/Nc2nncn2N)ccc1OCc1c(C)no[n+]1[O-] [compound 26657989] : Inactive
Oc1ccc(CN2CCCc3ccccc32)c2cccnc12 [compound 4249321] : Inactive
CCN1/C(=C\c2ccc3ccccc3[n+]2CC)Sc2cc(C)ccc21.[I-] [compound 24782097] : Poor quality curve
Cc1cc(C(=O)NNC(=S)Nc2ccccc2)nn1C [compound 24796479] : Inactive
Cc1cc(C(=O)NNC(=S)NC(=O)/C=C/c2ccccc2Cl)n[nH]1 [compound 14736067] : Inactive
O=C(O)c1cc(O)c(O)c(O)c1 [compound 26747307] : Poor quality curve

Return reported qHTS Data: jmjd2e fdh CurveClass values for all items listed beneath this line.
1. FC(F)(F)c1ccccc1CN1CCN(C2CCCCCC2)CC1.O=C(O)C(=O)O [compound 22403162]
2. Cc1ccnc(NC(c2cccnc2)c2ccc3cccnc3c2O)c1 (stereo not drawn) [compound 24794739]

["Inactive", "Poor quality curve"]

Provide one value: measured qHTS Data: jmjd2e fdh CurveClass of O=C(Nc1ccccc1C(F)(F)F)c1ncn[nH]1 [compound 24822488]
Poor quality curve

---

subject of test: JMJD2E (Homo sapiens)
Sequence (B2RXH2 1-337): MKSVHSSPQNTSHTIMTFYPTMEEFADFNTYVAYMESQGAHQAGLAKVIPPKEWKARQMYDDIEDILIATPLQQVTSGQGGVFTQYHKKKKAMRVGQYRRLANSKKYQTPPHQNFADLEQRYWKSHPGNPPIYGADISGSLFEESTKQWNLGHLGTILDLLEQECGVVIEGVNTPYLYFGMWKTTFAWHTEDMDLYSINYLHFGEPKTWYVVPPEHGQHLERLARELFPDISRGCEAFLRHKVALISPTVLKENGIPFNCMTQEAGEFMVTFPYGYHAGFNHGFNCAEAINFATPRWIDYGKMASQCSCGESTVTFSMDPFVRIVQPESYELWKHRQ
experimental details: JMJD2E FDH-coupled assay under low and high iron conditions (iron chelation profile)
Assay type: biochemical
Parameters: The catalytic domain of human JMJD2E (residues 1–337); His6 (N); made in house; host or cells: E. coli
run conditions: Table S1; low iron 2.5 µM FAS; unit not in table, from Figure 2; read-out: qHTS Data: jmjd2e fas2.5um IC50
Please use TRUE for IC50 under 8 µM and FALSE for everything else, ties included.

Below are worked cases with known answers.
CCOc1cc(CNc2ccc(N3CCCCC3)cc2)cc(Br)c1OCC(=O)NC(C)(C)C : FALSE
Cl.NCCc1cc(O)c(O)cc1O : TRUE
CCCCc1ccc(C(=O)O)nc1 : TRUE
N#C/C(=C\c1cc(O)c(O)c(O)c1)C(N)=O : TRUE
CN1CC[C@]2(C)c3cc(O)ccc3N(C)[C@@H]12 : FALSE
N[C@H](Cc1ccc(O)c(O)c1)C(=O)O : FALSE
Cc1nc(-c2coc3c(O)c(O)ccc3c2=O)cs1 : TRUE
O=C(CSc1ncn[nH]1)c1cccc([N+](=O)[O-])c1 : FALSE

Now turn to the next compound.
Lab note: IC50 threshold 8 µM. Does this compound come in strictly under it? `CC1=CC(=O)c2c(O)cccc2C1=O`
TRUE

---

subject of test: JMJD2E (KDM4E) (Homo sapiens)
Construct: The catalytic domain of human JMJD2E (residues 1–337); His6 (N); made in house; host or cells: E. coli
experimental details: qHTS fluorescence FDH-coupled JMJD2E demethylase assay
Assay type: biochemical
run conditions: Figure 2; 100 nM JMJD2E, 10 µM FAS; read-out: IC50 values in μM, qHTS
Please go through the items and note down their IC50.
Give bare numbers, in µM.

COc1ccccc1NC(=O)c1sc2ncn(Cc3ccccc3C)c(=O)c2c1C [SID 17408386] : 4.5

Now examine the next entry.
Provide one value: measured IC50 of Oc1ccc(NCc2ccccc2OCc2ccccc2F)cc1 [SID 17385881]
5

---

Please go through the items and note down their IC50.
subject of test: JMJD2E (KDM4E) (Homo sapiens)
Construct: The catalytic domain of human JMJD2E (residues 1–337); His6 (N); made in house; host or cells: E. coli
experimental details: qHTS fluorescence FDH-coupled JMJD2E demethylase assay
Format: biochemical
run conditions: Table S1; unit not in table, from Figure 2; read-out: qHTS Data: jmjd2e IC50
Answers are plain numbers, in µM.

Field: example entries. Status: answers known.
Oc1cc(O)c2c(c1)OC(c1cc(O)c(O)c(O)c1)C(O)C2 (stereo not drawn) : 1.41
Oc1ccccc1O : 14.1

Now examine the next entry.
Find the measured IC50 of `CN(C)[C@H]1C(=O)C(C(=O)NCN[C@@H](CCCCN)C(=O)O)=C(O)[C@]2(O)C(=O)C3=C(O)c4c(O)cccc4[C@@](C)(O)[C@H]3C[C@@H]12` with JMJD2E (KDM4E) (Homo sapiens) as test system.
8.91

---

Please go through the items and note down their IC50.
subject of test: JMJD2E (KDM4E) (Homo sapiens)
Construct: The catalytic domain of human JMJD2E (residues 1–337); His6 (N); made in house; host or cells: E. coli
experimental details: qHTS fluorescence FDH-coupled JMJD2E demethylase assay
Type: biochemical
run conditions: Figure 3; substituted 8-hydroxyquinolines against JMJD2E; read-out: IC50 /μM (qHTS IC50, FDH-coupled assay)
One number for each entry, in µM.

Return reported IC50 values for all items listed beneath this line.
1. Oc1c(CN2CCCC2)cc(COCc2ccccc2)c2cccnc12 [compound 85736312]
2. Oc1cccc2ccc(/C=C/c3c(F)cccc3Cl)nc12 [compound 24793399]
3. O=C(O)c1ccnc2c(O)cccc12 [SID 85736397, 4-carboxy-8-hydroxyquinoline]
4. Oc1ccc(CNc2ccccc2F)c2cccnc12 [SID 852641]
5. Oc1ccc(CNc2ccccc2)c2cccnc12 [compound 842629]
6. Oc1ccc(COCc2ccccc2)c2cccnc12 [compound 848472]
7. OCc1ccnc2c(O)cccc12 [compound 857270]
8. O=Cc1ccc(O)c2ncccc12 [compound 26664581]

1. 5
2. 28
3. 2.0
4. 1.1
5. 8.9
6. 36
7. 8.9
8. 3.2

Provide one value: measured IC50 of Oc1ccc(CNc2cccc(C(F)(F)F)c2)c2cccnc12 [compound 50122416]
7.9

---

subject of test: JMJD2E (Homo sapiens, UniProt B2RXH2)
experimental details: JMJD2E FDH-coupled assay under low and high iron conditions (iron chelation profile)
Assay type: biochemical
Parameters: The catalytic domain of human JMJD2E (residues 1–337); His6 (N); made in house; host or cells: E. coli
run conditions: Table S1; low iron 2.5 µM FAS
parameter measured: qHTS Data: jmjd2e fas2.5um Curve comment

Field: example entries. Status: answers known.
Nc1ccc2nc3c(=O)n(CCc4ccccc4)c(=O)[nH]c3nc2c1 : Poor quality curve
COc1ccc(-c2cc(=O)n(CCC#N)[nH]2)cc1 : Inactive
CN(C)c1ccnc(C(=O)O)c1 : Inactive
Cl.Nc1ccn([C@@H]2O[C@H](CO)[C@@H](O)[C@@H]2O)c(=O)n1 : Inactive

Return reported qHTS Data: jmjd2e fas2.5um Curve comment values for all items listed beneath this line.
1. O=C1C=C(O)c2cccc(O)c2C1=O
2. CCN(CC)c1ccc(N=Cc2c(C)[nH]c3ccccc23)cc1
3. CCN1/C(=C\c2ccc3ccccc3[n+]2CC)Sc2cc(C)ccc21.[I-]

1: Poor quality curve; 2: Poor quality curve; 3: Poor quality curve

---

Please go through the items and note down their pIC50.
subject of test: JMJD2E (KDM4E) (Homo sapiens, UniProt B2RXH2)
Construct: The catalytic domain of human JMJD2E (residues 1–337); His6 (N); made in house; host or cells: E. coli
experimental details: qHTS fluorescence FDH-coupled JMJD2E demethylase assay
Assay type: biochemical
run conditions: Table S1; unit not in table, from Figure 2; read-out: qHTS Data: jmjd2e IC50
Numbers only, as −log10 of the molar value.

COc1cc(/C=N/Nc2nncn2N)ccc1OCc1c(C)no[n+]1[O-] : 6.30
COc1ccc(-c2cc(=O)n(CCC#N)[nH]2)cc1 : 5.75
O=Cc1ccc(O)c2ncccc12 : 5.50
O=C(CSc1ncn[nH]1)CSc1ncn[nH]1 : 5.45

Find the measured pIC50 of `CCOC(=O)C1CCN(Cc2ccc(O)c3ncccc23)CC1` with JMJD2E (KDM4E) (Homo sapiens, UniProt B2RXH2) as test system.
5.05

---

subject of test: JMJD2E (Homo sapiens)
experimental details: JMJD2E FDH-coupled assay under low and high iron conditions (iron chelation profile)
Format: biochemical
Parameters: The catalytic domain of human JMJD2E (residues 1–337); His6 (N); made in house; host or cells: E. coli
run conditions: Table S1; low iron 2.5 µM FAS; unit not in table, from Figure 2; read-out: qHTS Data: jmjd2e fas2.5um IC50
parameter measured: IC50 (µM)
Give bare numbers, in µM.

Oc1ccc(NCc2ccccc2OCc2ccccc2F)cc1 : 8.91
O=C1C=C(O)c2cccc(O)c2C1=O : 14.1
Cc1cc(C(=O)NNC(=S)NC(=O)/C=C/c2ccccc2Cl)n[nH]1 : 8.91
COc1ccc(NC(=O)CC2Sc3ncnn3C2=O)cc1 (centres unmarked) : 1.78
Oc1ccc(CNc2ccccc2)c2cccnc12 : 1.26

Return reported IC50 values for all items listed beneath this line.
1. O=C(NO)c1ccccc1O
2. COc1ccc(-n2c(C)cc(/C=N/Nc3nnc(C)n3N)c2C)cc1.Cl
3. Oc1cc2c(cc1O)C1c3ccc(O)c(O)c3OCC1(O)C2 (centres unmarked)
4. O=c1c(O)c(-c2ccc(O)c(O)c2)oc2c(O)c(O)cc(O)c12
5. CN(C)C1C(=O)C(C(N)=O)=C(O)[C@@]2(O)C(=O)C3=C(O)c4c(O)cccc4[C@@](C)(O)C3CC12.Cl (some centres unmarked)
6. O=C1CC(Sc2ncn[nH]2)C(=O)N1c1ccccc1 (centres unmarked)

1. 12.6
2. 5.01
3. 1.58
4. 1.41
5. 15.8
6. 2.51
